For each of the binders below, state its pIC50.
molecular target: T1, human MCH receptor (membranes from a stable CHO or HEK-293 cell line) (human, UniProt Q99705 1-353); assay: competition vs [125I]-human MCH (Phe13,Tyr19); human MCH receptor cell membranes (Example 3)
T1 construct: whole, on cells; also called cloned human MCH receptor (CHO clone)
T1 sequence (Q99705 whole entry): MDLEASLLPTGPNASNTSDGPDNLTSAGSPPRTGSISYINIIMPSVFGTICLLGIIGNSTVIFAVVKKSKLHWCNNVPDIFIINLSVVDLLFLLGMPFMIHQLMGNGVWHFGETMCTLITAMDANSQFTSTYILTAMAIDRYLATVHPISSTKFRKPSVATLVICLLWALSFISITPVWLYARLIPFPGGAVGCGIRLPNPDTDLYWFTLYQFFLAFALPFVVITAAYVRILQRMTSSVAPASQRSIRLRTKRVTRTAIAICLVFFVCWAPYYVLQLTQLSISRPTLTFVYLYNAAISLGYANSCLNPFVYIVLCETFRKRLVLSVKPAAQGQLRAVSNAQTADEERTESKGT
Bridges are numbered along the chain shown (N, C = ends).
Answers are plain numbers, as −log10 of the molar value.

# example entries with known answers
binder	pIC50
Ac-RCMLGRVFRPC-NH2 (disulfide 2-11; SMILES CSCC[C@@H]1NC(=O)[C@@H](NC(=O)[C@H](CCCNC(=N)N)NC(C)=O)CSSC[C@@H](C(N)=O)NC(=O)[C@@H]2CCCN2C(=O)[C@H](CCCNC(=N)N)NC(=O)[C@H](Cc2ccccc2)NC(=O)[C@H](C(C)C)NC(=O)[C@H](CCCNC(=N)N)NC(=O)CNC(=O)[C@H](CC(C)C)NC1=O, ID; NO; 7 peptide; MCH position numbering) [MCH analog SEQ. ID. NO. 62 (position 13: Phe)]	9.00
Ac-RCMLGRVWRPC-NH2 (disulfide 2-11; SMILES CSCC[C@@H]1NC(=O)[C@@H](NC(=O)[C@H](CCCNC(=N)N)NC(C)=O)CSSC[C@@H](C(N)=O)NC(=O)[C@@H]2CCCN2C(=O)[C@H](CCCNC(=N)N)NC(=O)[C@H](Cc2c[nH]c3ccccc23)NC(=O)[C@H](C(C)C)NC(=O)[C@H](CCCNC(=N)N)NC(=O)CNC(=O)[C@H](CC(C)C)NC1=O, ID; NO; 7 peptide; MCH position numbering) [MCH analog SEQ. ID. NO. 63 (position 13: Trp)]	8.42
Ac-RCMLGRVYRPC-NH2 (disulfide 2-11 (inferred), Corresponds to MCH positions 6-16; also called ID; NO; 7 MCH analog) [truncated MCH analog SEQ. ID. NO. 7: Ac-Arg-Cys-Met-Leu-Gly-Arg-Val-Tyr-Arg-Pro-Cys-amide]	8.85

Note: attention shifts to another entry.
pIC50 lookup needed for Ac-RCMLGRVHRPC-NH2 (disulfide 2-11; SMILES CSCC[C@@H]1NC(=O)[C@@H](NC(=O)[C@H](CCCNC(=N)N)NC(C)=O)CSSC[C@@H](C(N)=O)NC(=O)[C@@H]2CCCN2C(=O)[C@H](CCCNC(=N)N)NC(=O)[C@H](Cc2c[nH]cn2)NC(=O)[C@H](C(C)C)NC(=O)[C@H](CCCNC(=N)N)NC(=O)CNC(=O)[C@H](CC(C)C)NC1=O, ID; NO; 7 peptide; MCH position numbering) [MCH analog SEQ. ID. NO. 64 (position 13: His)] , thanks.
7.88
